Experiment: Absorption maximum of compound in chloroform solution
Assay type: physicochemical
Conditions: absorbance at maximum 0.7 to 1.2
Lab note - cut at 700 nm for Absorption Maximum (nm): 1 if strictly below, -1 if not.

I'd appreciate it if you could check whether CCCCCCCCc1ccc(N(c2ccc(CCCCCCCC)cc2)c2ccc(/C=C/c3ccc(C4=C([O-])/C(=c5\cc/c(=C\C=C6/C=CC(=[N+](c7ccc(CCCCCCCC)cc7)c7ccc(CCCCCCCC)cc7)S6)s5)C4=O)s3)s2)cc1 has Absorption Maximum (nm) smaller than 700 nm.
-1

I'd appreciate it if you could check whether CCCCCCCCc1ccc(N(c2ccc(CCCCCCCC)cc2)c2cc3sc(C4=C([O-])/C(=c5\cc6c(s5)=CC(=[N+](c5ccc(CCCCCCCC)cc5)c5ccc(CCCCCCCC)cc5)S6)C4=O)cc3s2)cc1 has Absorption Maximum (nm) smaller than 700 nm.
-1

I'd appreciate it if you could check whether CCCCCCCCCCCCN(c1ccccc1)c1ccc(C2=C([O-])/C(=C3C=C/C(=[N+](\CCCCCCCCCCCC)CCNS(=O)(=O)CCCC)C=C/3O)C2=O)s1 [Compound R-2, reference compound] has Absorption Maximum (nm) smaller than 700 nm.
1
